- TARGET OR SYSTEM: T1, GHRH receptor (membrane receptors of human anterior pituitary cells) (human, UniProt Q02643 23-423)
- T1 construct: whole, on cells; Native receptor in a membrane fraction of purchased normal human pituitaries, not intact cells; also called hGHRH receptor; human pituitary membrane homogenates
- T1 sequence (looked up): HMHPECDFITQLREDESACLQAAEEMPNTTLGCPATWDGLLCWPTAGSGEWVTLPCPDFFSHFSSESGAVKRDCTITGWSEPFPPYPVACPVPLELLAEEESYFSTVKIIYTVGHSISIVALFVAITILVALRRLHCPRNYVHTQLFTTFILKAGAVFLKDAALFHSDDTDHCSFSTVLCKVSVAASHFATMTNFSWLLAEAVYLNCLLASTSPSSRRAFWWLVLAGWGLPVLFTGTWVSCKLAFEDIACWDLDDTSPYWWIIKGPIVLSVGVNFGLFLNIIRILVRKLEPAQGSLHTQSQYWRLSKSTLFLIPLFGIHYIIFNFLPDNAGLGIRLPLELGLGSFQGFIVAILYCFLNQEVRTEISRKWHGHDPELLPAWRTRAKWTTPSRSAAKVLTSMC
- PROTOCOL SUMMARY: competition with 125I-JV-1-42, human pituitary membranes
Non-standard residues stand in square brackets, D forms with d. No end group written: not given here. *: point of attachment. Phe(F5) = N[C@@H](Cc1c(F)c(F)c(F)c(F)c1F)C(=O)O; NMeY = CN[C@@H](Cc1ccc(O)cc1)C(=O)O; Agmatine = N=C(N)NCCCCN*; Nle = CCCC[C@H](N)C(=O)O; Orn = NCCC[C@H](N)C(=O)O; Abu = CC[C@H](N)C(=O)O; GABA = NCCCC(=O)O
MEASURED ATTRIBUTE: Relative affinity (Binding potency) vs JI-38 (JI-38 = 1)
Value expressed in JI-38 = 1; do not type the unit.

Exam item: Complete the entry with Relative affinity (Binding potency) vs JI-38 for [NMeY][dA]DAIFTTSYR[Orn]VL[Abu]QLSAR[Orn]LLQDI[Nle]DR-NHMe (also called MR-410; Peptide 27410) [P-27410 [N-Me-Tyr^1, D-Ala^2, Thr^8, Orn^12, Abu^15, Orn^21, Nle^27, Asp^28]hGHRH(1-29)NH-CH3]
Marked response: 5.24

Exam item: Given the binder [NMeY][dA]DAIFTQSYR[Orn]VL[Abu]QLSAR[Orn]LLQDI[Nle]D[Agmatine] (also called Peptide 20361) [P-20361 [N-Me-Tyr^1, D-Ala^2, Gln^8, Orn^12, Abu^15, Orn^21, Nle^27, Asp^28, Agm^29]hGHRH(1-29)NH2] , write its reported Relative affinity (Binding potency) vs JI-38.
Marked response: 5.3

Exam item: State, in one line, measured Relative affinity (Binding potency) vs JI-38 of [NMeY][dA]DAI[Phe(F5)]TNSYR[Orn]VL[Abu]QLSAR[Orn]LLQDI[Nle]SR[GABA]-NHMe (also called Peptide 27414) [P-27414 [N-Me-Tyr^1, D-Ala^2, Fpa5^6, Orn^12, Abu^15, Orn^21, Nle^27, Gab^30]hGHRH(1-30)NH-CH3]
Marked response: 2.79

Exam item: Answer with the recorded Relative affinity (Binding potency) vs JI-38 of [NMeY][dA]DAIFTNSYR[Orn]VL[Abu]QLSAR[Orn]LLQDI[Nle]D[Agmatine] (also called Peptide 20367) [P-20367 [N-Me-Tyr^1, D-Ala^2, Orn^12, Abu^15, Orn^21, Nle^27, Asp^28, Agm^29]hGHRH(1-29)NH2] only.
Marked response: 2.56

Exam item: Write down Relative affinity (Binding potency) vs JI-38 measured for item [NMeY][dA]DAIFTQSYR[Orn]VL[Abu]QLSAR[Orn]LLQDI[Nle]DR-NHEt (also called MR-420; Peptide 28420) [P-28420 [N-Me-Tyr^1, D-Ala^2, Gln^8, Orn^12, Abu^15, Orn^21, Nle^27, Asp^28]hGHRH(1-29)NH-CH2-CH3]
Marked response: 8.37
